What cell viability was measured for each of the following?
System: NOMO1
Assay: cell viability relative to DMSO control; higher = less cytotoxic
Conditions: HPLM + 10% dialyzed FBS; 48 h; 0.00234 µM
Give bare numbers, in %.

Here's what some known entries look like.
O=C(Nc1ccc([N+](=O)[O-])cc1Cl)c1cc(Cl)ccc1O : 94.9
C[C@]12CC[C@@H]3c4ccc(O)cc4CC[C@H]3[C@@H]1CC[C@@H]2O : 124
O=C(NCCO[N+](=O)[O-])c1cccnc1 : 124
COc1cccc2c(NCc3ccccc3)nc(-n3c(N)nc4ccccc43)nc12 : 106
CCCCCCCCOc1ccccc1C(=O)Nc1ccc(C(=O)OCC[N+](C)(CC)CC)cc1 : 104
C/C(=C\c1csc(C)n1)[C@@H]1C[C@@H]2O[C@]2(C)CCC[C@H](C)[C@H](O)[C@@H](C)C(=O)C(C)(C)[C@@H](O)CC(=O)O1 : 28.6
O=[S+]([O-])(O)c1ccc2cc(/N=N/c3cc([S+](=O)([O-])O)c4cccnc4c3O)ccc2c1 : 122
Cn1cnc(-c2cc3nccc(Oc4ccc(NC(=S)NC(=O)Cc5ccccc5)cc4F)c3s2)c1 : 93.2

(Q) Recorded cell viability for CN(c1nccc(=O)[nH]1)C1CCN(c2nc3ccccc3n2Cc2ccc(F)cc2)CC1 , please?
(A) 104
